# System: HCC461
# Measurement Description: cell viability assay in HCC461, compound alone
# Format: cell-based
# Test Conditions: HCC461; Tables 6-9; read-out: IC50 (μM) in cell viability assay in HCC461
Field: IC50. Provide a value for each of the molecules that follow.

Request: Please supply the value of reported IC50 for the item CN[C@@H](C)C(=O)N[C@H](C(=O)N[C@@H](CCCCNC(=O)c1cccc(C(=O)N[C@H]2CC(C(=O)N[C@@H]3CCc4ccccc4C3)N(C(=O)[C@@H](NC(=O)[C@H](C)NC)C(C)(C)C)C2)c1)C(=O)N[C@@H](C)C(C)C)C(C)(C)C (some centres unmarked)
Result: 2.5 µM

Request: Look up and state reported IC50 for CN[C@@H](C)C(=O)N[C@H](C(=O)N1C[C@@H](NC(=O)c2cccc(C(=O)NCCCC[C@H](NC(=O)[C@@H](NC(=O)[C@H](CO)NC)C(C)(C)C)C(=O)N[C@@H](C)C(C)C)c2)CC1C(=O)N[C@@H]1CCc2ccccc2C1)C(C)(C)C (some centres unmarked)
Result: > 30 µM

Request: Please give measured IC50 of the following entry: CN[C@@H](C)C(=O)N[C@@H](CCC(=O)N[C@H]1CC(C(=O)N[C@@H]2CCc3ccccc3C2)N(C(=O)[C@@H](NC(=O)[C@H](C)NC)C(C)(C)C)C1)C(=O)N[C@H](C(=O)N[C@@H](C)C(C)C)C(C)(C)C (some centres unmarked)
Result: > 30 µM

Request: Quick one: give measured IC50 for C[C@H](NC(=O)OCc1ccc([N+](=O)[O-])cc1)C(=O)NC(C(=O)N1C[C@@H](NC(=O)c2cc(C(=O)N[C@H]3C[C@@H](C(=O)N[C@@H]4CCCc5ccccc54)N(C(=O)[C@@H](NC(=O)[C@H](C)NC(=O)OCc4ccc([N+](=O)[O-])cc4)C(C)(C)C)C3)cc(S(=O)(=O)O)c2)CC1C(=O)N[C@@H]1CCCc2ccccc21)C(C)(C)C (some centres unmarked)
Result: > 30 µM

Request: Specify measured IC50 for C[C@H](NC(=O)OCc1ccc([N+](=O)[O-])cc1)C(=O)NC(C(=O)N1C[C@@H](NC(=O)c2cccc(C(=O)N[C@H]3C[C@@H](C(=O)N[C@@H]4CCCc5ccccc54)N(C(=O)[C@@H](NC(=O)[C@H](C)NC(=O)OCc4ccc([N+](=O)[O-])cc4)C(C)(C)C)C3)c2)CC1C(=O)N[C@@H]1CCCc2ccccc21)C(C)(C)C (some centres unmarked) .
Result: > 30 µM

###

# Test system: PANC-1 cells
# Measurement Description: cell viability assay in PANC-1 cells (compound alone, + 100 ng/ml TNFa, + 300 ng/ml TRAIL)
# Format: cell-based
# Test Conditions: with 100 ng/ml TNFa; Tables 6-10; read-out: IC50 (μM) in cell viability assay in PANC-1 cells: Compound + 100 ng/ml TNFa
Measure: IC50 (µM)
Reply with just the number (in µM).

Request: In one line, give reported IC50 of the entry CN[C@@H](C)C(=O)N[C@@H](CCCCCC[C@H](NC(=O)[C@H](C)NC)C(=O)N1CC[C@H]1C(=O)N[C@@H]1CCCc2ccccc21)C(=O)N1CC[C@H]1C(=O)N[C@@H]1CCCc2ccccc21 .
Result: 0.064

Request: # return recorded IC50 for entry CN[C@@H](C)C(=O)N[C@H](C(=O)N[C@@H](CCNC(=O)CC[C@H](NC(=O)[C@@H](NC(=O)[C@H](C)NC)C(C)(C)C)C(=O)N[C@@H]1CCCc2ccccc21)C(=O)N[C@H](C)C(C)C)C(C)C
Result: 0.994

Request: Using known records, supply IC50 for CN[C@@H](C)C(=O)N[C@H](C(=O)N1CCC[C@H]1C(=O)N[C@H]1c2ccccc2C[C@@H]1OCC#CC#CCO[C@H]1Cc2ccccc2[C@@H]1NC(=O)[C@@H]1CCCN1C(=O)[C@@H](NC(=O)[C@H](C)NC)C(C)(C)C)C(C)(C)C
Result: 0.0013

Request: Complete the entry with IC50 for CN[C@@H](C)C(=O)N[C@H](C(=O)N1CCC[C@H]1C(=O)N[C@H](C)c1ccccc1)[C@H](C)NC(=O)c1ccc(C(=O)N[C@@H](C)[C@H](NC(=O)[C@H](C)NC)C(=O)N2CCC[C@H]2C(=O)N[C@H](C)c2ccccc2)cc1
Result: 0.199

Request: Using known records, supply IC50 for CN[C@@H](C)C(=O)N[C@@H](CCCCCC[C@H](NC(=O)[C@H](C)NC)C(=O)N1c2ccccc2C[C@H]1C(=O)N[C@H](C)c1ccccc1)C(=O)N1c2ccccc2C[C@H]1C(=O)N[C@H](C)c1ccccc1
Result: 0.547

Request: For the compound CN[C@@H](C)C(=O)NC(C(=O)N[C@@H](CCNC(=O)CCc1cn([C@H]2C[C@@H](C(=O)N[C@@H]3CCCc4ccccc43)N(C(=O)[C@@H](NC(=O)[C@H](C)NC)C3CCCCC3)C2)nn1)C(=O)N[C@H](C)C(C)C)C(C)C (stereo partly shown) , give its measured IC50 value.
Result: 0.392

Request: Answer with the recorded IC50 of CN[C@@H](C)C(=O)N[C@H](C(=O)N1CCC[C@H]1C(=O)N[C@H]1c2ccccc2C[C@@H]1NC(=O)c1ccc(C(=O)N[C@H]2Cc3ccccc3[C@@H]2NC(=O)[C@@H]2CCCN2C(=O)[C@@H](NC(=O)[C@H](C)NC)C(C)(C)C)cc1)C(C)(C)C only.
Result: 0.061

Request: Indicate its recorded IC50; the compound in question is CN[C@@H](C)C(=O)N[C@H](C(=O)N1C[C@@H](NC(=O)c2cccc(C(=O)N[C@H]3C[C@@H](C(=O)NC4CCCc5c(OC)cccc54)N(C(=O)[C@@H](NC(=O)[C@H](C)NC)C(C)(C)C)C3)c2)C[C@H]1C(=O)NC1CCCc2c(OC)cccc21)C(C)(C)C (single isomer, unassigned) [Compound 46]
Result: 0.048

Request: Give IC50 for CN[C@@H](C)C(=O)N[C@H](C(=O)N[C@@H](CCNC(=O)c1cccc(C(=O)N[C@H]2C[C@@H](C(=O)N[C@@H]3CCCc4ccccc43)N(C(=O)[C@@H](NC(=O)[C@H](C)NC)C(C)(C)C)C2)c1)C(=O)N[C@@H]1CCCc2ccccc21)C(C)C
Result: 0.015

Request: Check the records and state IC50 for CN[C@@H](C)C(=O)N[C@H](C(=O)N[C@@H](CCNC(=O)c1cccc(C(=O)N[C@H]2C[C@@H](C(=O)N[C@@H]3CCCc4ccccc43)N(C(=O)[C@@H](NC(=O)[C@H](C)NC)C(C)(C)C)C2)c1)C(=O)N[C@H](C)c1ccccc1)C(C)(C)C
Result: 0.0069

Request: Answer with the recorded IC50 for the compound listed here: CN[C@@H](C)C(=O)NC(C(=O)N1C[C@@H](NC(=O)c2cccc(C(=O)N[C@H]3CC(C(=O)N[C@H](CO)[C@H](O)c4ccccc4)N(C(=O)[C@@H](NC(=O)[C@H](C)NC)C(C)(C)C)C3)c2)CC1C(=O)N[C@H](CO)[C@@H](O)c1ccccc1)C(C)(C)C (stereo partly shown)
Result: 0.753

Request: Entry CN[C@@H](C)C(=O)N[C@H](C(=O)N1C[C@@H](NC(=O)c2cc(C(=O)NCCN)cc(C(=O)N[C@H]3C[C@@H](C(=O)N[C@@H]4CCCc5ccccc54)N(C(=O)[C@@H](NC(=O)[C@H](C)NC)C(C)(C)C)C3)c2)C[C@H]1C(=O)N[C@@H]1CCCc2ccccc21)C(C)(C)C needs its IC50 filled in; supply it.
Result: 0.023

From: patent US20130344026A1
